# System: Human mammary cancer MCF-7 cell
# assay.summary: Human mammary cancer MCF-7 cell growth inhibition test (neutral red)
# Assay type: cell-based
# stated.conditions: MCF7, MCF-7 cells, 72 hours, medium with 10^-8M estradiol, neutral red absorbance at 550 nm
Rule: measured IC50 below 30 nM gets Fulfilled; anything equal to or greater than 30 nM gets Not fulfilled.

- Nc1ccc(-c2cc(=O)c3c(N)c(F)c(COC(=O)CN4CCCCC4)c(F)c3o2)cc1F [Compound 9]: Not fulfilled

Problem: For the compound CCN(CC)C(=O)OCc1c(F)c(N)c2c(=O)cc(-c3ccc(N)c(F)c3)oc2c1F [Compound 1] , is IC50 under 30 nM?
Not fulfilled

Problem: For the compound COC(=O)CNCC(=O)OCc1c(F)c(N)c2c(=O)cc(-c3ccc(N)c(F)c3)oc2c1F [Compound 14] , is IC50 under 30 nM?
Fulfilled

Problem: For the compound Nc1ccc(-c2cc(=O)c3c(N)c(F)c(COC(=O)CN4CCOCC4)c(F)c3o2)cc1F [Compound 11] , is IC50 under 30 nM?
Fulfilled

Problem: For the compound CN1CCN(C(=O)OCc2c(F)c(N)c3c(=O)cc(-c4ccc(N)c(F)c4)oc3c2F)CC1 [Compound 2] , is IC50 under 30 nM?
Not fulfilled

Problem: For the compound CN(C)CCC(=O)OCc1c(F)c(N)c2c(=O)cc(-c3ccc(N)c(F)c3)oc2c1F [Compound 7] , is IC50 under 30 nM?
Fulfilled

Problem: For the compound CN1CCN(CC(=O)OCc2c(F)c(N)c3c(=O)cc(-c4ccc(N)c(F)c4)oc3c2F)CC1 [Compound 10] , is IC50 under 30 nM?
Not fulfilled

Problem: For the compound CN(C)CCCC(=O)OCc1c(F)c(N)c2c(=O)cc(-c3ccc(N)c(F)c3)oc2c1F [Compound 8] , is IC50 under 30 nM?
Fulfilled

Problem: For the compound Nc1ccc(-c2cc(=O)c3c(N)c(F)c(COC(=O)CN4CCC(O)CC4)c(F)c3o2)cc1F [Compound 12] , is IC50 under 30 nM?
Fulfilled

Problem: For the compound C=CCOC(=O)OCc1c(F)c(N)c2c(=O)cc(-c3ccc(N)c(F)c3)oc2c1F [Compound 15] , is IC50 under 30 nM?
Not fulfilled

Problem: For the compound CN(C)CC(=O)OCc1c(F)c(N)c2c(=O)cc(-c3ccc(N)c(F)c3)oc2c1F [Compound 6] , is IC50 under 30 nM?
Fulfilled

====

# Test system: estrogen-dependent human mammary cancer MCF-7
# assay.summary: Antitumor effects against estrogen-dependent human mammary cancer MCF-7 transplanted in nude mice
# Type: in vivo, female BALB/c-nu/nu mouse
# stated.conditions: Mus musculus, MCF7, po; dose 25 mg/kg orally, 5 days per week for two weeks; ratio of V/V0 of treated group to control group; judgement date day 14 to 25, differs per compound; read-out: T/C
Some compounds, each annotated with its measured response vs control in vivo at 25 mg/kg.
I only need the number, in %, no unit after it.

# example entries with known answers
* CN(C)CCCC(=O)OCc1c(F)c(N)c2c(=O)cc(-c3ccc(N)c(F)c3)oc2c1F | 15
* Nc1ccc(-c2cc(=O)c3c(N)c(F)c(COC(=O)CN4CCCCC4)c(F)c3o2)cc1F | 4.2
* CN(C)CCC(=O)OCc1c(F)c(N)c2c(=O)cc(-c3ccc(N)c(F)c3)oc2c1F | 4.1
* CN(C)CCN(C)CC(=O)OCc1c(F)c(N)c2c(=O)cc(-c3ccc(N)c(F)c3)oc2c1F | 2.2

Dear colleague, I am looking for the recorded response vs control in vivo at 25 mg/kg of the following compound: Nc1ccc(-c2cc(=O)c3c(N)c(F)c(COC(=O)CN4CCC(O)CC4)c(F)c3o2)cc1F
3.5
